- Assay Details: Half life in Sprague-Dawley rat at 1 mg/kg, iv
- Format: ADME, organism-based
- Set-up: dose 1 mg/kg, route intravenous
- Experimental Conditions: in vivo
Measured Parameter: half-life (h)
Provide the reading as a plain figure in h.

Query: Assign half-life to the following record: `Cc1csc(NC(=O)c2cc(Oc3ccc(S(C)(=O)=O)cc3)cc(OC(C)C)c2)n1`
Result: 1.1

* * *

- Assay Details: Volume of distribution at steady state in Sprague-Dawley rat at 1 mg/kg, iv
- Format: ADME, organism-based
- Set-up: dose 1 mg/kg, route intravenous
- Experimental Conditions: in vivo, read-out: Vdss
Measured Parameter: Vd (L/kg)
The figure you give is taken to be in L/kg; do not add the unit.

Query: Respond only with Vd recorded for `Cc1csc(NC(=O)c2cc(Oc3ccc(S(C)(=O)=O)cc3)cc(OC(C)C)c2)n1`
Result: 0.4
